Hey, just so you know, these numbers are from the supplement of paper PMC6555819.

Test system: PPARg:RXRa 90nM:30nM, anti-RXR (NR concentration 90 nM, RXRa partner concentration 30 nM)
METHOD_DESCRIPTION: PBM binding z-score (relative to random genomic background probes); higher = stronger binding; sequences stand for … in GC…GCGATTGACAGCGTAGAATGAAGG
# label = yes (1) if PBM binding z-score >= 2 else no (0)

>  <RESIDUES>
TCTCGGAGGACACGAAAGTCAGAGCTTTCCAGAG

>  <GROUP_LABEL>
no (0)

$$$$
>  <RESIDUES>
ACAGACAGGTGATGAAGGTAAGTCAGGCTATCAT

>  <GROUP_LABEL>
no (0)

$$$$
>  <RESIDUES>
CCTAGCAGGCCGATCTGGGTCACTCAAGGCTTGA

>  <GROUP_LABEL>
no (0)

$$$$
>  <RESIDUES>
CCTACTGGGCCCAGGTCATTGATCAGTCAAAGCA

>  <GROUP_LABEL>
no (0)

$$$$
>  <RESIDUES>
AGAGCGAGGGCAATGAGTTGATAGCACGGGTGGC

>  <GROUP_LABEL>
no (0)

$$$$
>  <RESIDUES>
TCGAGTAGGTTACCAATGGGGCATACAGCTTTCT

>  <GROUP_LABEL>
no (0)

$$$$
>  <RESIDUES>
CGTCCAAGGTCAGAGAGGTCAGCGAATGCCGAGT

>  <GROUP_LABEL>
yes (1)

$$$$
>  <RESIDUES>
AGAATGAGGTTATACGTAGATCAGGTAAGAAAGT

>  <GROUP_LABEL>
no (0)

$$$$
>  <RESIDUES>
CGAACTAGGTCAAGAGGTCAAAGTCCGCTTCCCG

>  <GROUP_LABEL>
yes (1)

$$$$
>  <RESIDUES>
AATACAGGGTCACTAGGGCAGAGTAGGTACGAAT

>  <GROUP_LABEL>
yes (1)

$$$$
>  <RESIDUES>
ATATGTAGGTTATCGGGCCATTCAGTTTGCGCAT

>  <GROUP_LABEL>
yes (1)

$$$$
>  <RESIDUES>
CCTACTGGGCCATTCTGAGGTCATTGATCATATG

>  <GROUP_LABEL>
no (0)

$$$$
>  <RESIDUES>
CATCCAGGGTCAGCTAGGCCAGAGTAGGGACGGC

>  <GROUP_LABEL>
no (0)

$$$$
>  <RESIDUES>
ATATGTAGGTTATCGGGTGATTCAGTTTGCGCAT

>  <GROUP_LABEL>
yes (1)

$$$$
>  <RESIDUES>
CAAACTGGGTCAAGGTCAAAGTCGGTTTGTGCCA

>  <GROUP_LABEL>
yes (1)

$$$$
>  <RESIDUES>
GCTGCTAGGTCAACTGATGGTCAGCTCAAGCTCG

>  <GROUP_LABEL>
no (0)

$$$$
>  <RESIDUES>
CGTCCAAGGTCAGCATGTCAGTGAAAGCGACGTG

>  <GROUP_LABEL>
no (0)

$$$$
>  <RESIDUES>
AGAATGAGGTTATGATCAGGGAAACAGAATACAT

>  <GROUP_LABEL>
no (0)

$$$$
>  <RESIDUES>
AGTCAAAGATCAGGACGAGGTAACGTAAAGCACG

>  <GROUP_LABEL>
no (0)

$$$$
>  <RESIDUES>
ATCTCTAGGTAAAAGATCAGTGAATCCCGAGGAT

>  <GROUP_LABEL>
yes (1)

$$$$
>  <RESIDUES>
CCCGACAGGTGAAAGGTAACTCAGTCTGGTACGC

>  <GROUP_LABEL>
yes (1)

$$$$
>  <RESIDUES>
TCTCGGAGGACACGAAAGGTCAAAGCTCGACATC

>  <GROUP_LABEL>
yes (1)

$$$$
>  <RESIDUES>
TCTGCTAGGTCAGTTGGTTAGCTAACGAGCTGCC

>  <GROUP_LABEL>
no (0)

$$$$
>  <RESIDUES>
GATACAGGGTCAAGTCCAGAGTACGCGTATTGAT

>  <GROUP_LABEL>
yes (1)

$$$$
>  <RESIDUES>
ATCTCTAGGTAACAAGTTCATTGAAAGAGAGGAC

>  <GROUP_LABEL>
yes (1)

$$$$
>  <RESIDUES>
AGAACGATGGCAATGAGTTGATAGCACGGGTGGC

>  <GROUP_LABEL>
no (0)

$$$$
>  <RESIDUES>
CCGCCTGGGGCAGAAAGGTTACCATACCATCCGG

>  <GROUP_LABEL>
no (0)

$$$$
>  <RESIDUES>
AGAATGAGGTGAAGATCAGGGAAACAGAATACAT

>  <GROUP_LABEL>
no (0)

$$$$
>  <RESIDUES>
TCTAGTTGGTCTCGGAGGTCACACACGACGGGTA

>  <GROUP_LABEL>
yes (1)

$$$$
>  <RESIDUES>
CCTTACGGGTCACTGACAGGTTAAAGCATTTGGA

>  <GROUP_LABEL>
yes (1)

$$$$
>  <RESIDUES>
CAAACTAGGTCTCCGGAAGGTCAAAGTCCGCATG

>  <GROUP_LABEL>
yes (1)

$$$$
>  <RESIDUES>
CCTAGTTGGTCAGGAGGTAACACACCGGATATGA

>  <GROUP_LABEL>
no (0)

$$$$
>  <RESIDUES>
CGGCCAAGGTCAATGCTAGGTCAGTGAAAGCATT

>  <GROUP_LABEL>
yes (1)

$$$$
>  <RESIDUES>
TCTCAGAGGACACGAAGGTCAGAGCTTTCCAGAG

>  <GROUP_LABEL>
yes (1)

$$$$
>  <RESIDUES>
CCGACTGGGGCAAAGGCTACCATACTCAGTACGA

>  <GROUP_LABEL>
yes (1)

$$$$
>  <RESIDUES>
AGAACGAGGGCAATGATTTGATAGCACGGGTGGC

>  <GROUP_LABEL>
no (0)

$$$$
>  <RESIDUES>
ATATGTATGTTAGCTGGGGTCATTCAGACTAGGC

>  <GROUP_LABEL>
yes (1)

$$$$
>  <RESIDUES>
GCTGCTAGGTCAGGTTCGTCAGCTAACGGGTACG

>  <GROUP_LABEL>
no (0)

$$$$
>  <RESIDUES>
TCTAGTTGGTCAAAGATCACACACTCGAAATGCG

>  <GROUP_LABEL>
yes (1)

$$$$
>  <RESIDUES>
TCATATAGGTAAATGCTAGGGGAAAGTCCGATCT

>  <GROUP_LABEL>
yes (1)

$$$$
>  <RESIDUES>
CCTACTGGGCCAAAAAGGTCAGTGATGCCGATAA

>  <GROUP_LABEL>
no (0)

$$$$
>  <RESIDUES>
CTCGAAAGGTCGGTTGAGGTGAGGATACGGATAA

>  <GROUP_LABEL>
no (0)

$$$$
>  <RESIDUES>
CGAACTAGGTCATTGACAGGTCAGTGAATAGTAA

>  <GROUP_LABEL>
yes (1)

$$$$
>  <RESIDUES>
GCTGCTAGATCAACTGATGGTCAGCTAAAGCTCG

>  <GROUP_LABEL>
no (0)

$$$$
>  <RESIDUES>
CGCCCAAGGTCAAGGTCAGTGAAAGAGACTCGAA

>  <GROUP_LABEL>
yes (1)

$$$$
>  <RESIDUES>
ATATGTAGGTTACATCCGGGGCATTCAGGCTATG

>  <GROUP_LABEL>
yes (1)

$$$$
>  <RESIDUES>
AGAATGAGGTTATTCAGATCAGGGAATTGCGGTC

>  <GROUP_LABEL>
no (0)

$$$$
>  <RESIDUES>
CGTCCAAGGTCAGCAGCTCAGTGAAAGCGACGTG

>  <GROUP_LABEL>
no (0)

$$$$
>  <RESIDUES>
ATTCAAAGTTCATCTAGGTAACGTAAGATATGCT

>  <GROUP_LABEL>
yes (1)

$$$$
>  <RESIDUES>
GCTTACGGGTCAAAGGTTCTAGCATGAATAGAAT

>  <GROUP_LABEL>
yes (1)

$$$$

----------
Each entry below lists one item and its recorded PBM binding z-score value.
System: PPARg:RXRa 90nM:30nM, anti-RXR (NR concentration 90 nM, RXRa partner concentration 30 nM)
METHOD_DESCRIPTION: PBM binding z-score (relative to random genomic background probes); higher = stronger binding; sequences stand for … in GC…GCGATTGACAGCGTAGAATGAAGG

>  <RESIDUES>
CGTCCAAGGCCAATGCTAGGTCAGTGAAAGCATT

>  <PBM binding z-score>
-0.866

$$$$
>  <RESIDUES>
ATATGTAGGTTAGCTGGGGCCATTCAGACTAGGC

>  <PBM binding z-score>
2.06

$$$$
>  <RESIDUES>
ACTTGTTGGTCAGCTGAGGTCACACACAATTCGG

>  <PBM binding z-score>
1.95

$$$$
>  <RESIDUES>
CCTGCTAGGTCATGGTCACCTAATCTACAGTATG

>  <PBM binding z-score>
2.72

$$$$
>  <RESIDUES>
CCTATTAGTTGACCATACGGGCAACCGAAGCTCG

>  <PBM binding z-score>
-0.186

$$$$
>  <RESIDUES>
CCTAGCAGGCCAATCTGGCTCACTCAAGGCTTGA

>  <PBM binding z-score>
-1.12

$$$$
>  <RESIDUES>
TGTGAAAGTTCAAAGGTAACGTAAGTATCCACAC

>  <PBM binding z-score>
6.25

$$$$
>  <RESIDUES>
ATCGAAAGGTCGAGATGAGTATAGAGAAAGGGAA

>  <PBM binding z-score>
2

$$$$
>  <RESIDUES>
TCTTGTAGATCAATCAGGTTAAGAAAGCCTGAGT

>  <PBM binding z-score>
2.3

$$$$
>  <RESIDUES>
TCGAGTAGGTTACCAATCGGGCATTCAGCTTTCT

>  <PBM binding z-score>
1.27

$$$$
>  <RESIDUES>
CCTAGTTGGTCAAGGTCAAACACGCTATAGGTAC

>  <PBM binding z-score>
3.04

$$$$
>  <RESIDUES>
TAGCCTAGGTCAGATCGGGCCAGCATACGCTATA

>  <PBM binding z-score>
0.135

$$$$
